Protocol Summary: Solubility of CD101 acetate in various media
Type: physicochemical
Condition Summary: aqueous with cosolvent or surfactant or cyclodextrin; Lactated Ringer's Solution for Injection (USP), prepared from stock in USP water with 0.7% Tween 20; maximum solubility not reached; read-out: Solubility
Starred links: 1 amine or outer side, 2 acyl side, 3 side chain; linkers in the order of their positions; H or OH if unused. Positions of bridges follow the written chain, without caps; N, C: chain ends. Non-standard residues stand in square brackets, D forms with d. Residues, ends and D or L forms follow the SMILES beside them. *: point of attachment. Orn(4R-OH,5R-OCH2CH2NMe3+) = C[N+](C)(C)CCO[C@@H](N[*:3])[C@H](O)C[C@H](N[*:1])C(=O)[*:2]; pTerphenylCO(4''-OnC5H11) = CCCCCOc1ccc(-c2ccc(-c3ccc(C(=O)*)cc3)cc2)cc1; hTyr(3S-OH,4S-OH) = N[C@H](C(=O)O)[C@H](O)[C@@H](O)c1ccc(O)cc1; Pro(3S-OH,4S-Me) = C[C@H]1CN[C@H](C(=O)O)[C@H]1O; Hyp = O=C(O)[C@@H]1C[C@@H](O)CN1
Measurement Kind: solubility

Molecule	Val
CCCCCOc1ccc(-c2ccc(-c3ccc(C(=O)N[C@H]4C[C@@H](O)[C@@H](OCC[N+](C)(C)C)NC(=O)[C@@H]5[C@@H](O)[C@@H](C)CN5C(=O)[C@H]([C@@H](C)O)NC(=O)[C@H]([C@H](O)[C@@H](O)c5ccc(O)cc5)NC(=O)[C@@H]5C[C@@H](O)CN5C(=O)[C@H]([C@@H](C)O)NC4=O)cc3)cc2)cc1 [CD101 acetate] ({pTerphenylCO(4''-OnC5H11)}-[Orn(4R-OH,5R-OCH2CH2NMe3+)]T[Hyp][hTyr(3S-OH,4S-OH)]T[Pro(3S-OH,4S-Me)]; lactam 1-C)	> 800 µg/mL
